Every entry's value here was drawn from patent US11447466B2.

target: human TLR9 (Homo sapiens); assay: TLR9 inhibition reporter assay (HEK-Blue SEAP reporter, ODN2006 stimulation); conditions: HEK-Blue cells overexpressing human TLR9, SEAP reporter, ODN2006 5 nM, 22 hour incubation
Sequence (Q9NR96 26-1032): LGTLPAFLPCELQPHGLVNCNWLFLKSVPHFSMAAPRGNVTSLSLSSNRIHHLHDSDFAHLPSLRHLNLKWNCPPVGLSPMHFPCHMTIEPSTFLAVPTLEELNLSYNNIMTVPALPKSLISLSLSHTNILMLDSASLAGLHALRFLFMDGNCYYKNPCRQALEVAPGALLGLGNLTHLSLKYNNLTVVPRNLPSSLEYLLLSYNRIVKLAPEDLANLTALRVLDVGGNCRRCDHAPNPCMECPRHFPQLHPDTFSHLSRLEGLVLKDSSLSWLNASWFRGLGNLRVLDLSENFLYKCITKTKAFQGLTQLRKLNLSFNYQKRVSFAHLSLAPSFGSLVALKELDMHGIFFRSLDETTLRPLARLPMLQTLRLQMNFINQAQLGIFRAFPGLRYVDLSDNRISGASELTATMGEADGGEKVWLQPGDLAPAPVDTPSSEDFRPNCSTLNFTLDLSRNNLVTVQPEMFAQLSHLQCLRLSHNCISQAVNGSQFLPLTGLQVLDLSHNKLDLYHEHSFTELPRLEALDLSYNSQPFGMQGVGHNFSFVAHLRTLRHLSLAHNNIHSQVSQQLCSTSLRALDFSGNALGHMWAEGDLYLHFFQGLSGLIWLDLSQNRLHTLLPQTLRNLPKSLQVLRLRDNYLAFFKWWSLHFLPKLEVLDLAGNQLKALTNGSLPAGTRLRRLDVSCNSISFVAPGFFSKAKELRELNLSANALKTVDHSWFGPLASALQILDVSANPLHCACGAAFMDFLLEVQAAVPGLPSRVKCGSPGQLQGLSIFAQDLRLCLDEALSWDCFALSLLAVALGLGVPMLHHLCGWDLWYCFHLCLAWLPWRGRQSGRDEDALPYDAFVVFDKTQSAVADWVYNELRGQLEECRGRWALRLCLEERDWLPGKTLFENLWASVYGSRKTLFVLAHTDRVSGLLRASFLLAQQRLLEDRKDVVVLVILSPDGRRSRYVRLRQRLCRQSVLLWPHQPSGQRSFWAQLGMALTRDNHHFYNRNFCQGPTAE
Property Measured: pIC50
Answers are plain numbers, as −log10 of the molar value.

Cc1ncccc1-c1cc(-c2[nH]c3ccc(C4CCN(C(C)C)CC4)cc3c2C(C)C)cn(C)c1=O	6.49
CC(C)c1c(-c2cc(/C=C/C3CC3)c(=O)n(C)c2)[nH]c2ccc(C3CCNCC3)cc12	5.82
Cc1cc(-c2[nH]c3ccc(C4CCN(CC(N)=O)CC4)cc3c2C(C)C)cn(C)c1=O	4.94
COCCn1cc(-c2[nH]c3ccc(C4CCN(C5CCOCC5)CC4)cc3c2C(C)C)cc(C)c1=O	5.47
Cc1cc(-c2[nH]c3ccc(C4CCN(CC(C)C)CC4)cc3c2C(C)C)cn(Cc2ccccc2)c1=O	5.66

For every listed record, write down its pIC50.
1. CC(C)c1c(-c2cc(-c3cncnc3)c(=O)n(C)c2)[nH]c2ccc(C3CCN(CCS(C)(=O)=O)CC3)cc12
2. Cc1cc(-c2[nH]c3ccc(C4CCN(C5COC5)CC4)cc3c2C(C)C)nn(C)c1=O
3. Cc1cc(=O)n(C)cc1-c1[nH]c2ccc(C3CCNCC3)cc2c1C(C)C

5.12
4.32
6.02

For every listed record, write down its pIC50.
1. COCCN1CCC(c2ccc3[nH]c(-c4cc(-c5cnn(C)c5)c(=O)n(C)c4)c(C(C)C)c3c2)CC1
2. Cc1cc(-c2[nH]c3ccc(C4CCN(C5CCCCC5)CC4)cc3c2C(C)C)cn(C)c1=O
3. CC(C)c1c(-c2cc(-c3cccnc3)c(=O)n(C)c2)[nH]c2ccc(C3CCN(CC(=O)N(C)C)CC3)cc12
4. Cc1nn(C)cc1CN1CCC(c2ccc3[nH]c(-c4cc(C)c(=O)n(C)c4)c(C(C)C)c3c2)CC1

5.67
5.59
5.74
5.22

For every listed record, write down its pIC50.
1. Cc1c(-c2[nH]c3ccc(C4CCNCC4)cc3c2C(C)C)cc(Cl)c(=O)n1C
2. Cc1cc(-c2[nH]c3ccc(C4CCN(C(=O)CN(C)C)CC4)cc3c2C(C)C)c(C)n(C)c1=O
3. Cc1cc(-c2[nH]c3ccc(C4CCN(CC(=O)N(C)C)CC4)cc3c2C(C)C)cn(C)c1=O
4. CNC(=O)c1cccc(-c2cc(-c3[nH]c4ccc(C5CCNCC5)cc4c3C(C)C)cn(C)c2=O)c1

6.04
5.15
4.96
5.23

---

Please respond with reported IC50 for every item in the list.
target: UniProt Q9NR97; experiment: TLR8 inhibition reporter assay (HEK-Blue SEAP reporter, R848 stimulation); conditions: HEK-Blue cells overexpressing human TLR8, SEAP reporter, R848 15.9 μM, 22 hour incubation
Sequence (Q9NR97 27-1041): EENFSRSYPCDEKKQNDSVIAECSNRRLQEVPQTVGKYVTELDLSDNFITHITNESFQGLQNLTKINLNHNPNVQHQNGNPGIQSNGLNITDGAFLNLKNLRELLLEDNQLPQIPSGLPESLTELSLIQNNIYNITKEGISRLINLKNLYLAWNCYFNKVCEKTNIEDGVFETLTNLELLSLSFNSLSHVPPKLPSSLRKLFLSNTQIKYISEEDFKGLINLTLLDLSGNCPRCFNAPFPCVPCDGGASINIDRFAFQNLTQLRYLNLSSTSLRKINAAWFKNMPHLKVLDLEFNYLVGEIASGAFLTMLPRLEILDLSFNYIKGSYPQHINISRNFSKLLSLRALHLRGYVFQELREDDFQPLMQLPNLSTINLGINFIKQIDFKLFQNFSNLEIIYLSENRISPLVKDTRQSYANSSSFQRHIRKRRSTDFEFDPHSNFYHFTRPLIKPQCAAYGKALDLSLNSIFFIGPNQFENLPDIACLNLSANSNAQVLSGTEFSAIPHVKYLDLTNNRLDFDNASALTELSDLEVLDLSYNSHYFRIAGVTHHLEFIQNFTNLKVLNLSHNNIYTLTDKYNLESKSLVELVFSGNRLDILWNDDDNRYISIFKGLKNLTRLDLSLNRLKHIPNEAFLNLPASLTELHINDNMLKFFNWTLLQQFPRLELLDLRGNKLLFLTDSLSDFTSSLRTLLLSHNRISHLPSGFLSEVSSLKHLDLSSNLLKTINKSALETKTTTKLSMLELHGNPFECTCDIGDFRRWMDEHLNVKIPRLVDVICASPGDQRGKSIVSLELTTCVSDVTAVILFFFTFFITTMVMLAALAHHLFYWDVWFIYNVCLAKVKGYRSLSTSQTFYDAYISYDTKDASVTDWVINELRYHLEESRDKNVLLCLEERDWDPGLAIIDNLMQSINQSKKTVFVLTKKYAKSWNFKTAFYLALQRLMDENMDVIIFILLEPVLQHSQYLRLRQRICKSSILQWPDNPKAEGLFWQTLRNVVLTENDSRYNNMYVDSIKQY
Answers are plain numbers, in nM.

Cc1nc(-c2[nH]c3ccc(C4CCN(C5CCOC5)CC4)cc3c2C(C)C)cn(C)c1=O (stereo not drawn)	53.8

For every listed record, write down its IC50.
1. Cc1cc(-c2[nH]c3ccc(C4CCN(CC(C)C)CC4)cc3c2C(C)C)cn(C)c1=O
2. Cc1cc(-c2[nH]c3ccc(C4CCN(C)CC4)cc3c2C(C)C)nn(C)c1=O
3. Cc1cc(-c2[nH]c3ccc(C4CCN(C5CCOC5)CC4)cc3c2C(C)C)nn(C)c1=O (stereo not drawn)
4. COc1cc(-c2[nH]c3ccc(C4CCN(C5COC5)CC4)cc3c2C(C)C)c(C)n(C)c1=O

5.6
21.5
11.7
163

For every listed record, write down its IC50.
1. Cc1c(-c2[nH]c3ccc(C4CCN(CC(C)(C)O)CC4)cc3c2C(C)C)cn(C)c(=O)c1Cl
2. Cc1cc(-c2[nH]c3ccc(C4CCN(C)CC4)cc3c2C(C)C)cn(CC(F)F)c1=O
3. CCn1cc(-c2[nH]c3ccc(C4CCN(CC(=O)NC)CC4)cc3c2C(C)C)cc(C)c1=O

5.3
15.8
15.1
